Each recorded value in this set is attributed to ChEMBL document CHEMBL1201862.

Answer each item with its documented IC50.
Assay system: UniProt:P63073
Sequence (P63073 whole entry): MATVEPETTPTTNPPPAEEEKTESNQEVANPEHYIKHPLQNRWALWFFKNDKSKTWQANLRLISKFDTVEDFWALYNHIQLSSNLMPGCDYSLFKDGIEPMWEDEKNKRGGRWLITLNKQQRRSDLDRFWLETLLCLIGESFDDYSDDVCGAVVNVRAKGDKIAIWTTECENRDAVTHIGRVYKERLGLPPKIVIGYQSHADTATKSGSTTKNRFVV
Assay comment: blockers of eIF4G binding by eIF4E – biochemical, TR-FRET, dose response (AID 855);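 note: potency for disrupting eIF4E binding to eIF4GI seen as loss of FRET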
Type: functional
Activity calls are given as the source filed them. The rule behind the calls is not given here.

Consider the molecule `O=C(NCc1ccc(F)cc1)c1c2c(nc3ccccc13)CCC2` and give its measured IC50.
50 µM (inactive)

Consider the molecule CC(=O)C1=C(c2ccccc2)OC(N)=C(C#N)C1c1ccc(O)cc1 (stereo not given) and give its measured IC50.
> 64 µM (inactive)

Consider the molecule Cc1cc(C)c(Nc2cc(S(=O)(=O)O)c(N)c3c2C(=O)c2ccccc2C3=O)c(C)c1 [ACID BLUE 129] and give its measured IC50.
26.1 µM (inactive)

Consider the molecule CC1CCc2nn(CC(=O)N3CCCCCC3)cc2C1 (stereo not given) and give its measured IC50.
> 64 µM (inactive)

Consider the molecule CC1(C)c2ccccc2N2CC(=O)NC21/C=C/c1ccco1 (stereo not given) and give its measured IC50.
50 µM (inactive)
